Task for the reader: assign each of the following molecules its reported logP.
Give the figure only, with no unit attached.

Inquiry: Recorded logP for c1ccc(-c2cccc(-c3ccccn3)n2)nc1 , please?
Reply text: 1.96

Inquiry: What would you report for c1ccc2c(c1)Sc1ccccc1S2 ?
Reply text: 4.47

Inquiry: Can you check c1ccc2c(c1)ccc1c2ccc2c3ccccc3ccc21 next?
Reply text: 7.11

Inquiry: Let us now turn to c1ccc(-c2c3ccccc3c(-c3ccccc3)c3ccccc23)cc1
Reply text: 8.46

Inquiry: Further, for c1csc(-c2cccs2)c1 ?
Reply text: 3.75

---

Observation Type: logP

Inquiry: Which logP is reported for this compound? c1ccc2cc3c(cc2c1)sc1ccccc13
Reply text: 5.34

Inquiry: Can you handle c1ccc(-c2ccccn2)nc1 next?
Reply text: 1.5

Inquiry: Repeat with c1ccc2c(c1)c1ccccc1c1c3ccccc3c3ccccc3c21
Reply text: 8.39

Inquiry: c1ccc2c(c1)cc1ccc3cccc4c5ccccc5c2c1c34 ?
Reply text: 7.71

Inquiry: Would you mind doing c1cc2ccc3cc4cccc5ccc6cc(c1)c2c3c6c54 as well?
Reply text: 7.04

Inquiry: // same read-out, input: c1ccc2cc3c(ccc4c5ccccc5ccc34)cc2c1
Reply text: 7.11

Inquiry: Another compound to check: c1ccc2cc3c(cc2c1)oc1ccccc13
Reply text: 5.05

Inquiry: What about this compound? c1ccc2cc3cc4cc5ccccc5cc4cc3cc2c1
Reply text: 7.11

Inquiry: Quick one: c1ccc2c(c1)ccc1c2ccc2ccc3ccccc3c21
Reply text: 7.11

Inquiry: What do you have for c1ccc2c(c1)Cc1ccccc1O2 ?
Reply text: 4.23

Inquiry: Now give it for c1ccc2c(c1)c1cccc3ccc4cccc2c4c31 too.
Reply text: 6.44

Inquiry: c1cc(-c2ccncc2)ccn1 , same question.
Reply text: 1.28

Inquiry: Can you check c1cc2ccc3ccc4ccc5ccc6ccc1c1c2c3c4c5c61 next?
Reply text: 7.64
